This section presents binders with their documented EC50 values.
- system.name: T1, human CD39 protein (recombinant) (human, UniProt P49961 38-478, limits assumed)
- T1 construct: Soluble recombinant protein coated on ELISA plates and used in the protein-based ATPase assay; also called recombinant CD39 protein; recombinant purified human CD39 protein
- T1 sequence: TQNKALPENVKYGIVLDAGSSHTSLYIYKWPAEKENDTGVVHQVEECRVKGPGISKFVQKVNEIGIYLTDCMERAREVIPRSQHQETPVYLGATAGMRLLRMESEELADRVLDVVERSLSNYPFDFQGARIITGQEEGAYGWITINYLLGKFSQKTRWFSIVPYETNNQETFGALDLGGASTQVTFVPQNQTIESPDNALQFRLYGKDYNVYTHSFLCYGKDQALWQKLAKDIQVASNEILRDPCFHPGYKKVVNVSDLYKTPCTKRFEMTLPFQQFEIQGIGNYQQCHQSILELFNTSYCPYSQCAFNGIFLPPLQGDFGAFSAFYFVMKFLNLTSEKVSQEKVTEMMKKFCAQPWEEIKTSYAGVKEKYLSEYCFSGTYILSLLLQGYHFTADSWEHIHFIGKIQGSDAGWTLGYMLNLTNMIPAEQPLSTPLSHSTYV
- measurement.description: ELISA on coated human CD39 protein
- Procedure: To determine if anti-CD39 mAbs bind to human CD39, ELISA plates were incubated overnight at 4° C. with human CD39 protein or mouse CD39 protein diluted in PBS, pH7.4 buffer at 1 μg/ml. Plates were washed four times in washing buffer (PBS containing 0.05% Tween 20), and blocked for 1 hour at 37° C. with 200 μl per well blocking buffer (1% BSA in PBS containing 0.05% Tween 20). […] Following color development, the reaction was stopped with 1N HCl, and absorbance at 450 nm was measured. […]
quantity.kind: EC50

binder	quantity.kind	data.value
HuEM0004-38-12 (antibody, human IgG1, kappa, L234A L235A, V domains shown, humanized mAb638, human IgG1/kappa) VH: EVQLVQSGAEVKKPGASVKVSCKASGYTFTSFWMHWVRQAPGQGLEWMGNINPRNGATKYNEKFRSRVTMTADKSISTAYMELSRLRSDDTAVYYCAREDYDEIYYAMDSWGQGTTVTVSS VL: ENVLTQSPATLSLSPGERATLSCSASSSVIYMYWFQQKPGQSPRVLIYDTSNLASGIPARFSGSGSGTDYTLTISSLEPEDFAVYYCQQWSTYPLTFGQGTKLEIKR	EC50	0.023 µg/mL
HuEM0004-38-11 (antibody, human IgG1, kappa, L234A L235A, V domains shown, humanized mAb638, human IgG1/kappa) VH: EVQLVQSGAEVKKPGASVKVSCKASGYTFTSFWMHWVRQAPGQGLEWMGNINPRNGATKYNEKFRSRVTMTADTSISTAYMELSRLRSDDTAVYYCAREDYDEIYYAMDSWGQGTTVTVSS VL: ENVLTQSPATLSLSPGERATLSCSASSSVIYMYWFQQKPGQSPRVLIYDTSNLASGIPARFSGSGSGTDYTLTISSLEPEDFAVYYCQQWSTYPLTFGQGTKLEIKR	EC50	0.021 µg/mL
HuEM0004-38-18 (antibody, human IgG1, kappa, L234A L235A, V domains shown, humanized mAb638, human IgG1/kappa) VH: EVQLVQSGAEVKKPGASVKVSCKASGYTFTSFWMHWVRQAPGQGLEWMGNINPRNGATKYNEKFRSRVTLTADKSISTAYMELSRLRSDDTAVYYCAREDYDEIYYAMDSWGQGTTVTVSS VL: ENVLTQSPATLSLSPGERATLSCSASSSVIYMYWFQQKPGQSPRVLIYDTSNLASGVPARFSGSGSGTDYTLTISSLEPEDFAVYYCQQWSTYPLTFGQGTKLEIKR	EC50	0.019 µg/mL
HuEM0004-38-19 (antibody, human IgG1, kappa, L234A L235A, V domains shown, humanized mAb638, human IgG1/kappa) VH: EVQLVQSGAEVKKPGASVKVSCKASGYTFTSFWMHWVRQAPGQGLEWIGNINPRNGATKYNEKFRSRVTLTADKSISTAYMELSRLRSDDTAVYYCAREDYDEIYYAMDSWGQGTTVTVSS VL: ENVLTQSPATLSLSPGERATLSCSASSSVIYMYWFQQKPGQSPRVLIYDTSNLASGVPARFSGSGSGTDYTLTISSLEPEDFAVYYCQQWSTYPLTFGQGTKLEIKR	EC50	0.02 µg/mL
EM0004-38c1 (antibody, human IgG1, kappa, L234A L235A, name in Kabat numbering, V domains shown, chimeric mAb638 variant; also called EM004-38c1) VH: QVQLQQPGTELVKPGASVKLSCKASGYTFTSFWMHWVKQRPGQGLEWIGNINPRQGATKYNEKFRSKVTLTADKTSSTAYMHLSSLTSEDSAVYYCAREDYDEIYYAMDSWGQGTSVTVSS VL: QNVLTQSPAIMSASPGEKVTMTCSASSSVIYMYWFQQKPGSSPRVLIYDTSNLASGVPARFSGSGSGTSYSLTISRMEAEDAATYYCQQWSTYPLTFGAGTKLELKR	EC50	0.023 µg/mL

From: patent US20220389111A1
